Give measured IC50 (neutralization) for each item. Keep answers brief.
target: HIV-1 Env of isolate MGRM-D-004 (subtype D) (HIV-1)
experiment-description: cell-based or functional assay

Give the measured IC50 (neutralization) of PGT-136 (antibody, V domains shown) VH: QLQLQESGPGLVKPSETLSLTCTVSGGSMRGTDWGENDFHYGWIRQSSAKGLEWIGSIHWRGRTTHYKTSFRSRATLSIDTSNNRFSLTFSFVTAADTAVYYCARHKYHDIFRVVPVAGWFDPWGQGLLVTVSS VL: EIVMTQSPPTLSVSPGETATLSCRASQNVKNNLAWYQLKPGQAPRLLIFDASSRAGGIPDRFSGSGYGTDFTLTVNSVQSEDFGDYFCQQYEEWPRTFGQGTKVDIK .
> 50 mg/L

Give the measured IC50 (neutralization) of PGT-135 (antibody, V domains shown) VH: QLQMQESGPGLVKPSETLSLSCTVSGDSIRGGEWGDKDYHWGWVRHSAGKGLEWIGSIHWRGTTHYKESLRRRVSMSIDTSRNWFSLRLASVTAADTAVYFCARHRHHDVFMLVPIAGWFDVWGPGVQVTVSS VL: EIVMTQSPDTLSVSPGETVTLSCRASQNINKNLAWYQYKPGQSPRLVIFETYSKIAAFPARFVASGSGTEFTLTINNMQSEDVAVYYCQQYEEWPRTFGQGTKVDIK .
> 50 mg/L
